B1: Ankyrin repeat and SOCS box protein 14, residues 532 to 572; numbered along this chain, A6NK59 (parent)
chain: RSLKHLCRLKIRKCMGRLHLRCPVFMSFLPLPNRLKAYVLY

- Variants of: B1
- assay procedure: abundance fitness (aPCA) (normalised: wild type 0, dead -1); higher = more abundant; growth selection in yeast, the domain comes from the species named
- measurement context: Homo sapiens
measured attribute: abundance fitness

mutant_code=K10L reported_result=0.445
mutant_code=N33D reported_result=0.057
mutant_code=K36Y reported_result=-0.335
mutant_code=M15G reported_result=-0.367
mutant_code=S27K reported_result=0.078
mutant_code=C14R reported_result=-0.264
mutant_code=L3P reported_result=-0.949
mutant_code=Y38T reported_result=-0.478
mutant_code=S2E reported_result=-0.057
mutant_code=R8S reported_result=-0.132
mutant_code=F28A reported_result=-0.228
mutant_code=R1K reported_result=-0.107
mutant_code=V39D reported_result=-0.95
mutant_code=H5R reported_result=-0.285
mutant_code=R17M reported_result=0.079
mutant_code=Y38I reported_result=-0.293
mutant_code=S27M reported_result=-0.892
mutant_code=L35W reported_result=0.044
mutant_code=C14L reported_result=0.431
mutant_code=R21K reported_result=-0.029
mutant_code=R12C reported_result=-0.249
mutant_code=L31R reported_result=-0.338

Ref: the Human Domainome abundance scans (Beltran et al. 2025)
